# tested_system: 89-residue L-CPTI C-terminal peptide, W452A mutant (Rattus norvegicus, UniProt P32198, W452A)
# Sequence (P32198 381-469 W452A): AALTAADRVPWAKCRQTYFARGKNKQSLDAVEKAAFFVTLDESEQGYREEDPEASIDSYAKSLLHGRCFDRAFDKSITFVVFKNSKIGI
# run_description: Quenching of intrinsic aromatic amino acid fluorescence by palmitoyl-CoA
# Format: binding
# run_conditions: read-out: Quenching Kd, quenching of aromatic amino acid fluorescence of 0.1 µM W452A peptide
recorded_metric: pKd
Just the number, please; pKd means minus log10 of the concentration in mol/L.

Entry CCCCCCCCCCCCCCCC(=O)SCCNC(=O)CCNC(=O)[C@H](O)C(C)(C)COP(=O)(O)OP(=O)(O)OC[C@H]1O[C@@H](n2cnc3c(N)ncnc32)[C@H](O)[C@@H]1OP(=O)(O)O : reported pKd = ?
7.80
